- RUN_DESCRIPTION: Cytotoxicity against MDCK cells assessed as cell death after 2 days by MTT assay
- Type: toxicity, cell-based, Canis lupus familiaris
- CONDITION_SUMMARY: dog
READOUT: CC50 at 48 h

[Q] Supply CC50 at 48 h value. Item: COC(=O)[C@]12CCC(C)(C)C[C@H]1C1=CC[C@@H]3[C@@]4(C)CC[C@@H](O[C@@H]5O[C@H](CO)[C@@H](O[C@@H]6O[C@@H](C)[C@H](O)[C@@H](O)[C@H]6O)[C@H](O)[C@H]5O[C@@H]5O[C@@H](C)[C@H](O)[C@@H](O)[C@H]5O)C(C)(C)[C@@H]4CC[C@@]3(C)[C@]1(C)CC2
[A] > 200 µM
